# system_name: T1, human LSR (lipolysis stimulated lipoprotein receptor) (human, UniProt Q86X29 1-649)
# T1 construct: Stood on human ovarian cancer cells (RMG-I, OVSAHO, JHOS2, OVISE; endogenous) or on SKOV3-L45 cells made to stably express LSR (construct not described); also called hLSR; human LSR protein (NP_991403.1)
# T1 sequence: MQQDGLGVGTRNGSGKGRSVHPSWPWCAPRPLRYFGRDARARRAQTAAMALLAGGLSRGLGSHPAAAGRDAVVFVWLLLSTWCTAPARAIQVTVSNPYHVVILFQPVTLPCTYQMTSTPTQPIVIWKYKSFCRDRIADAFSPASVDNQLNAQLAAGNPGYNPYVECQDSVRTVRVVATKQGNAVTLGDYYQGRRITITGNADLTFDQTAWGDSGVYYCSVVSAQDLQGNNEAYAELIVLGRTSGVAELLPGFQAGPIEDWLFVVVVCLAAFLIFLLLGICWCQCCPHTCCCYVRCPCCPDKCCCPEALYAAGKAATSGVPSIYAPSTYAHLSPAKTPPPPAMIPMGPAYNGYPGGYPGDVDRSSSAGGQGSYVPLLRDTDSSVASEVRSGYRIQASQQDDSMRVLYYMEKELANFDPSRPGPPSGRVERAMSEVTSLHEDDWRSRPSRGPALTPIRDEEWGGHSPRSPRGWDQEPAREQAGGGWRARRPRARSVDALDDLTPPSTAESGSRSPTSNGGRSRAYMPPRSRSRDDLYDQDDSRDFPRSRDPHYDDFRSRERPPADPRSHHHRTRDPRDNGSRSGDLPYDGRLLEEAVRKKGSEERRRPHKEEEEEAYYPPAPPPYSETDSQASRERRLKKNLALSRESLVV
# experimental_details: FACS on RMG-I cells stained with various antibody concentrations, goat anti-mouse IgG-FITC, fit in GraphPad Prism
readout_type: Kd (nM)
Give the number; nM is assumed, so skip it.

Inquiry: What value of measured Kd is listed for anti-LSR mouse/chicken chimeric monoclonal antibody #26-2 (antibody, V domains shown, also called No. 26-2; anti-LSR antibody 26-2) VH: AVTLDESGGGLQTPGGGLSLVCKGSGFTFSNYEMQWVRQAPGKGLEWVAGISGAGSTTRYGSAVQGRATISRDNGQSTVRLQLNNLRAEDTGTYYCARGSNIDGWGHGTEVIVST VL: ALTQPSSVSANPGETVKITCSGGGRYAESYYYSWFQQKSPGSAPVTVIYWNDKRPSNIPSRFSGSLSGSTNTLTITGVRAEDEAVYYCGAYEDSSAGFGAGTTLTV ?
Reply text: 4.04
